# Test system: THP-1 cells
# PROTOCOL: THP-1 chemotaxis assay
# Type: cell-based, human
# CONDITION_PARAMETERS: THP-1 cells, 2 hr; recombinant undigested chemokine; read-out: EC50, chemotaxis
PARAMETER_MEASURED: EC50 (nM)
Give bare numbers, in nM.

Suppose we examine the substance CCL5/RANTES: traditional CCR1 ligand chemokine ; what EC50 value has been reported?
0.5

====

# TARGET_OR_SYSTEM: FPRL1 (Homo sapiens)
# Sequence (P25090 whole entry): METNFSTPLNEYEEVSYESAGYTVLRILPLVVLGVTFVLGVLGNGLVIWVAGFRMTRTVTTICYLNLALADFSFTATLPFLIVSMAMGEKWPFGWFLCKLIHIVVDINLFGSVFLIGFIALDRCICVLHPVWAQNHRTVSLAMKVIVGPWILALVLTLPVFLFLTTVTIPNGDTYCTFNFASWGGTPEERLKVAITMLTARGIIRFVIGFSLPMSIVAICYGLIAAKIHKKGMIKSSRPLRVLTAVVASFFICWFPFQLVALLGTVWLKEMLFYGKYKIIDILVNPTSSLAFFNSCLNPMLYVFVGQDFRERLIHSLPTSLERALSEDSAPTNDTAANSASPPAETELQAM
# PROTOCOL: Functional assays on FPRL1 (receptor signaling and chemotaxis)
# Format: cell-based
# Set-up: endogenous in cells; host or cells: human CD14+ monocytes from buffy coats
# CONDITION_PARAMETERS: isolated peptide
pEC50: −log10 of the molar value. Where no end group is shown, it is not given here.
PARAMETER_MEASURED: pEC50

Give the measured pEC50 of MLWRRKIGPQMTLSHAAG [SHAAGtide] .
7.52 to 8.00
